# tested-on: D3 DAR (Homo sapiens (Human))
# Sequence (P35462 whole entry): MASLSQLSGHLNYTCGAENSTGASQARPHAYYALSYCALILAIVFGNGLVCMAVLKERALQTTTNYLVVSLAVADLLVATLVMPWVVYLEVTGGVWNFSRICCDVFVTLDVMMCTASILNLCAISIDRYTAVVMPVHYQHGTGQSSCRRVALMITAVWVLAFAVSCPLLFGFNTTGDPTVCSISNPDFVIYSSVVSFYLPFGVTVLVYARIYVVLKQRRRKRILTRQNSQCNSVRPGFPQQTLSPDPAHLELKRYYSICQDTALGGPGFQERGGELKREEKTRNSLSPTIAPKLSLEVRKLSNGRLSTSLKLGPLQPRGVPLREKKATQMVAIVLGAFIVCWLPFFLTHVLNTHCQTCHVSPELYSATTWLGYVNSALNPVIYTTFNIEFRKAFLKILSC
# Type: cell-based
# settings: β-arrestin recruitment, agonist
quantity-name: D3 EC50

- smiles-code: "COc1cccc(OCCN2CCN(C(=O)c3cc4ccccc4[nH]3)CC2)c1"
  result: "none"
- smiles-code: "COc1ccc(CCCN2CCN(C(=O)c3ccc(OC)cc3)CC2)cc1"
  result: "none"
- smiles-code: "COc1ccc(OCCCN2CCN(C(=O)c3ccc(OC)cc3)CC2)cc1"
  result: "none"
- smiles-code: "COc1ccc(OCCCN2CCN(C(=O)c3ccc(Cl)cc3)CC2)cc1"
  result: "none"
- smiles-code: "COc1ccc(OCCCN2CCN(C(=O)c3cc4ccccc4[nH]3)CC2)cc1"
  result: "none"
- smiles-code: "COc1ccc(OCCN2CCN(S(=O)(=O)c3ccc(OC)cc3)CC2)cc1"
  result: "none"
- smiles-code: "COc1ccc(OCCN2CCN(CC(=O)c3cc4ccccc4[nH]3)CC2)cc1"
  result: "none"
- smiles-code: "COc1ccc(OCCN2CCN(C(=O)c3ccc(OC)cc3)CC2)cc1"
  result: "none"
- smiles-code: "COc1ccc(OCCCCN2CCN(C(=O)c3cc4ccccc4[nH]3)CC2)cc1"
  result: "none"
- smiles-code: "COc1ccc(OCCN2CCN(C(=O)c3ccc(OC(F)(F)F)cc3)CC2)cc1"
  result: "none"
- smiles-code: "COc1ccc(OCCC2CCN(C(=O)c3ccc(OC)cc3)CC2)cc1"
  result: "none"
- smiles-code: "COc1ccc(OCCN(C)CCN(C)C(=O)c2ccc(OC)cc2)cc1"
  result: "none"
- smiles-code: "COc1ccc(OCCC2CCN(C(=O)c3cc4ccccc4[nH]3)CC2)cc1"
  result: "none"
- smiles-code: "COc1ccc(C(=O)N2CCN(c3ccc(OC)cc3)CC2)cc1"
  result: "none"
- smiles-code: "CC(C)(C)c1ccc(OCCN2CCN(C(=O)c3cc4ccccc4[nH]3)CC2)cc1"
  result: "none"

Values were extracted from patent US11634404B2.
